Target: IKZF2 (Homo sapiens, UniProt Q96SW2+Q9UKS7)
Sequence (Q9UKS7 1-500 isoform Q9UKS7-2): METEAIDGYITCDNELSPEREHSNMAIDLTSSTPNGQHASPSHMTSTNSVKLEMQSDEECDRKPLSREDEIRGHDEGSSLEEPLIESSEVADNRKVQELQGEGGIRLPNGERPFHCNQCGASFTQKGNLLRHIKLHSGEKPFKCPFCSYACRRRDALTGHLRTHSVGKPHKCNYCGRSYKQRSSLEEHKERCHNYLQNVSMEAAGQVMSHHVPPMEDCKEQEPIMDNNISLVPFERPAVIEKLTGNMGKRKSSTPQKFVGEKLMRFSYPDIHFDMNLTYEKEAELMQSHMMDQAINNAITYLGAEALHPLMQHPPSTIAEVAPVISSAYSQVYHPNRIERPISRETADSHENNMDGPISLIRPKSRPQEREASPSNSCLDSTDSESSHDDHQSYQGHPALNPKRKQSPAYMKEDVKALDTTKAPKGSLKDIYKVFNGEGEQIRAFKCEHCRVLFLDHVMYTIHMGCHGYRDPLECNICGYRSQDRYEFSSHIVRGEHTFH
Sequence (Q96SW2 whole entry): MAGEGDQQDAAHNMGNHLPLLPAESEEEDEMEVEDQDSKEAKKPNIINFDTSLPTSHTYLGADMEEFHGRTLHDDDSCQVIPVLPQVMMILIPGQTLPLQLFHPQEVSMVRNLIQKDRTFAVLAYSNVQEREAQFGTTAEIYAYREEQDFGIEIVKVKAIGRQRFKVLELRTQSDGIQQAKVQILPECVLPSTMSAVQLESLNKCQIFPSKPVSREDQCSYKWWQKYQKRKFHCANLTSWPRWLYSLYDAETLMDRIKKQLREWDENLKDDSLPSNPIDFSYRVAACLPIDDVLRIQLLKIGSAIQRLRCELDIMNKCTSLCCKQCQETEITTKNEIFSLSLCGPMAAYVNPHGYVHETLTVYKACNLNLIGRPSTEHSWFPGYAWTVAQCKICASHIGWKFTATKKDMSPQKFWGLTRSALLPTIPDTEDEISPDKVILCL
Sequence (Q16531 whole entry partner): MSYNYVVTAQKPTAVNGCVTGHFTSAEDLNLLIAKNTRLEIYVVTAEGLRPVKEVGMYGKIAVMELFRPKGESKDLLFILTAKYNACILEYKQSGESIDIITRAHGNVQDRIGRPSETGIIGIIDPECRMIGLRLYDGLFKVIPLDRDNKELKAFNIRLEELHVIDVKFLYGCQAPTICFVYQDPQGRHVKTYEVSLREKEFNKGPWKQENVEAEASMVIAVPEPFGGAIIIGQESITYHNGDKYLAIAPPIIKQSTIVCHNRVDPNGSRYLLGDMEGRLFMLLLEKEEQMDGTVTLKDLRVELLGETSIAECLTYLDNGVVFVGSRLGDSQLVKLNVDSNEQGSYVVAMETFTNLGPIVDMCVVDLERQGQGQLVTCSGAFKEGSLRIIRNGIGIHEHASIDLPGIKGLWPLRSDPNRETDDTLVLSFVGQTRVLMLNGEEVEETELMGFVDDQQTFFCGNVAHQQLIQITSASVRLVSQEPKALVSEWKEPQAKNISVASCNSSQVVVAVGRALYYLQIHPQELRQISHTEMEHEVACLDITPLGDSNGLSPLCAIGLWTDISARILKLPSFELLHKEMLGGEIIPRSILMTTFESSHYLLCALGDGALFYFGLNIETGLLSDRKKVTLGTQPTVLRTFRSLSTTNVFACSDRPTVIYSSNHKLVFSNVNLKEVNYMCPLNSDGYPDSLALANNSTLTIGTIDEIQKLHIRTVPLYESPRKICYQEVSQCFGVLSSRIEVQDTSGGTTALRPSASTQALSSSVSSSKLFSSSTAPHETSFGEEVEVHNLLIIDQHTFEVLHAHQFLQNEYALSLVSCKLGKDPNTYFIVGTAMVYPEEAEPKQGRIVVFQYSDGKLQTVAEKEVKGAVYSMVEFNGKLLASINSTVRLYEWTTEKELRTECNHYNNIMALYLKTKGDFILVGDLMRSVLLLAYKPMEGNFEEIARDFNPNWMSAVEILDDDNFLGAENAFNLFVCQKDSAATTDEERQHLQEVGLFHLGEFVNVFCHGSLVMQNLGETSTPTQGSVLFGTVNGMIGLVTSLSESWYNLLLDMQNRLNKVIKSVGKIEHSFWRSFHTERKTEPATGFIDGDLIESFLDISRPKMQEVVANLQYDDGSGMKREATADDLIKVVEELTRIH
Experiment: HEK293 HiBiT in vitro degradation of IKZF2
Type: cell-based
Parameters: expressed in transfected cells
Settings: HEK293 HiBiT; maximum degradation at the highest concentration tested
property.measured: IKZF2 Dmax (%)

COCC1CCC(N[C@H]2CCCC[C@@H]2Cc2ccc3c(c2)CN(C2CCC(=O)NC2=O)C3=O)CC1 (single isomer, unassigned) ... 98
CC(N[C@H]1CCCC[C@@H]1Cc1ccc2c(c1F)CN(C1CCC(=O)NC1=O)C2=O)C1CCOCC1 (single isomer, unassigned) ... 97
CC(N[C@H]1CCCO[C@@H]1Cc1ccc2c(c1F)CN(C1CCC(=O)NC1=O)C2=O)C1CCC1 (single isomer, unassigned) ... 92
COC1CCC(N[C@H]2CCCC[C@@H]2Cc2ccc3c(c2)CN(C2CCC(=O)NC2=O)C3=O)CC1 (single isomer, unassigned) ... 98
CC(N[C@H]1CCCC[C@@H]1Cc1ccc2c(c1)CN(C1CCC(=O)NC1=O)C2=O)C1(C(F)F)CC1 (stereo partly drawn) ... 95
O=C1CCC(N2Cc3cc(C[C@H]4CCCC[C@@H]4NC4CCCCC45CC5)ccc3C2=O)C(=O)N1 (stereo partly drawn) ... 97
